Hey, just so you know, these numbers are from PubChem BioAssay.

experiment: blockers of DNA damage checkpoint Chk1 activation – imaging, HeLa, hydroxyurea, phospho-Chk1 nuclear intensity, primary screen (AID 1187); details: hydroxyurea-induced phospho-Chk1 immunofluorescence imaging, higher = more signal; further: test concentration not given here
Entries and their z-score
Reported endpoint: z-score

1. COc1ccc([Si](C)(C)[C@H]2[C@H](CC(=O)N3CCC[C@H]3CO)O[C@@]3(C(=O)N(Cc4ccc(N5CCCCC5=O)cc4)c4ccccc43)[C@@H]2C)cc1    0.241
2. N#Cc1ccc(NN2C(C(O)C3CC=CCC3)C=CC3C(=O)N(c4ccccc4)C(=O)C32)cc1 (stereo unspecified)    0.22
3. O=C(NCc1ccc(F)cc1)[C@H]1C[C@H]2C(=O)N3CCC[C@H]3C(=O)N2[C@H]1c1ccc(O)cc1    -0.415
4. COC(=O)C1=CC(CCCO)=CC(c2cccs2)N(Cc2cc3c(cc2Br)OCO3)C=C1C(=O)OC (stereo unspecified)    0.454
5. COC(=O)[C@H](Cc1ccc(O)cc1)N[C@@H](/C=C/C1CC1)[C@H](O)Cc1ccccc1    0.0577
6. COc1ccc(C(O)C2C=CC3C(=O)N(C)C(=O)C3N2N(c2ccccc2)c2ccccc2)cc1 (stereo unspecified)    -0.508

---

test: probe aDKK1 binding to arrayed compounds – biochemical, biotinylated probe, 635/667 nm fluorescence, primary screen (AID 1099); details: small-molecule microarray, higher = more signal;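 further: score merges 667nm spot fluorescence with signal to noise across triplicate slides; reference of the scale not given here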
Decision: composite z-score compared against 0.05; not below it gives criterion met, below it gives criterion not met.

1) COc1ccc([Si](C)(C)[C@@H]2[C@@H](CC(=O)N(CCO)Cc3ccccc3)O[C@]3(C(=O)N(Cc4ccc(N5C(=O)c6cccc7cccc5c67)cc4)c4ccccc43)[C@H]2C)cc1    criterion not met
2) C=C(CCCC)/C(=C/C[C@H](OC(=O)c1ccncc1)c1ccc(OCCO)cc1)c1cnc2ccccc2c1    criterion not met
3) C=C(CCCC)C(=O)CC[C@H](OC(=O)c1ccccc1-c1ccccc1C(=O)O)c1ccc(OCCO)cc1    criterion not met
4) C[C@@H]1ON(c2ccc(I)cc2)[C@H](c2cccc(NC(=O)OCC3c4ccccc4-c4ccccc43)c2)[C@H]1C(=O)N1C(=O)OC[C@H]1Cc1ccccc1    criterion met
5) CC(C)c1nc2cc(Br)ccc2c(=O)o1    criterion met
6) CC(C)=CCCC(C)=CC(O)C1C=CC2C(=O)NC(=O)C2N1Nc1ccccn1 (centres undefined)    criterion met
7) CO[C@H]1O[C@H](CO)[C@@H](OC(=O)Nc2ccc3c(c2)OCO3)[C@H](OC(=O)Nc2ccccc2-c2ccccc2)[C@H]1OC(=O)Nc1ccccc1-c1ccccc1    criterion met
8) COc1ccc(C#Cc2ccc3c(c2)[C@]2(C(=O)N3)[C@H](C(=O)O)[C@H]3C(=O)O[C@H](c4ccccc4)[C@H](c4ccccc4)N3[C@@H]2c2ccccc2OCCO)cc1    criterion not met
9) COC(=O)[C@@]1(Cc2ccccc2)[C@H]2c3cc(C(=O)N(C)C)n(Cc4ccc(S(C)(=O)=O)cc4)c3C[C@H]2CN1C(=O)c1ccccc1    criterion met

---

biological target: Neurogenic locus notch homolog protein 2 (Homo sapiens) (UniProt Q04721); assay: small molecules binding Notch2 protein – biochemical, small-molecule microarray, 635 nm fluorescence, stem cell growth factors, primary screen (AID 1073); conditions: higher = more signal
Sequence (Q04721 whole entry, looked up): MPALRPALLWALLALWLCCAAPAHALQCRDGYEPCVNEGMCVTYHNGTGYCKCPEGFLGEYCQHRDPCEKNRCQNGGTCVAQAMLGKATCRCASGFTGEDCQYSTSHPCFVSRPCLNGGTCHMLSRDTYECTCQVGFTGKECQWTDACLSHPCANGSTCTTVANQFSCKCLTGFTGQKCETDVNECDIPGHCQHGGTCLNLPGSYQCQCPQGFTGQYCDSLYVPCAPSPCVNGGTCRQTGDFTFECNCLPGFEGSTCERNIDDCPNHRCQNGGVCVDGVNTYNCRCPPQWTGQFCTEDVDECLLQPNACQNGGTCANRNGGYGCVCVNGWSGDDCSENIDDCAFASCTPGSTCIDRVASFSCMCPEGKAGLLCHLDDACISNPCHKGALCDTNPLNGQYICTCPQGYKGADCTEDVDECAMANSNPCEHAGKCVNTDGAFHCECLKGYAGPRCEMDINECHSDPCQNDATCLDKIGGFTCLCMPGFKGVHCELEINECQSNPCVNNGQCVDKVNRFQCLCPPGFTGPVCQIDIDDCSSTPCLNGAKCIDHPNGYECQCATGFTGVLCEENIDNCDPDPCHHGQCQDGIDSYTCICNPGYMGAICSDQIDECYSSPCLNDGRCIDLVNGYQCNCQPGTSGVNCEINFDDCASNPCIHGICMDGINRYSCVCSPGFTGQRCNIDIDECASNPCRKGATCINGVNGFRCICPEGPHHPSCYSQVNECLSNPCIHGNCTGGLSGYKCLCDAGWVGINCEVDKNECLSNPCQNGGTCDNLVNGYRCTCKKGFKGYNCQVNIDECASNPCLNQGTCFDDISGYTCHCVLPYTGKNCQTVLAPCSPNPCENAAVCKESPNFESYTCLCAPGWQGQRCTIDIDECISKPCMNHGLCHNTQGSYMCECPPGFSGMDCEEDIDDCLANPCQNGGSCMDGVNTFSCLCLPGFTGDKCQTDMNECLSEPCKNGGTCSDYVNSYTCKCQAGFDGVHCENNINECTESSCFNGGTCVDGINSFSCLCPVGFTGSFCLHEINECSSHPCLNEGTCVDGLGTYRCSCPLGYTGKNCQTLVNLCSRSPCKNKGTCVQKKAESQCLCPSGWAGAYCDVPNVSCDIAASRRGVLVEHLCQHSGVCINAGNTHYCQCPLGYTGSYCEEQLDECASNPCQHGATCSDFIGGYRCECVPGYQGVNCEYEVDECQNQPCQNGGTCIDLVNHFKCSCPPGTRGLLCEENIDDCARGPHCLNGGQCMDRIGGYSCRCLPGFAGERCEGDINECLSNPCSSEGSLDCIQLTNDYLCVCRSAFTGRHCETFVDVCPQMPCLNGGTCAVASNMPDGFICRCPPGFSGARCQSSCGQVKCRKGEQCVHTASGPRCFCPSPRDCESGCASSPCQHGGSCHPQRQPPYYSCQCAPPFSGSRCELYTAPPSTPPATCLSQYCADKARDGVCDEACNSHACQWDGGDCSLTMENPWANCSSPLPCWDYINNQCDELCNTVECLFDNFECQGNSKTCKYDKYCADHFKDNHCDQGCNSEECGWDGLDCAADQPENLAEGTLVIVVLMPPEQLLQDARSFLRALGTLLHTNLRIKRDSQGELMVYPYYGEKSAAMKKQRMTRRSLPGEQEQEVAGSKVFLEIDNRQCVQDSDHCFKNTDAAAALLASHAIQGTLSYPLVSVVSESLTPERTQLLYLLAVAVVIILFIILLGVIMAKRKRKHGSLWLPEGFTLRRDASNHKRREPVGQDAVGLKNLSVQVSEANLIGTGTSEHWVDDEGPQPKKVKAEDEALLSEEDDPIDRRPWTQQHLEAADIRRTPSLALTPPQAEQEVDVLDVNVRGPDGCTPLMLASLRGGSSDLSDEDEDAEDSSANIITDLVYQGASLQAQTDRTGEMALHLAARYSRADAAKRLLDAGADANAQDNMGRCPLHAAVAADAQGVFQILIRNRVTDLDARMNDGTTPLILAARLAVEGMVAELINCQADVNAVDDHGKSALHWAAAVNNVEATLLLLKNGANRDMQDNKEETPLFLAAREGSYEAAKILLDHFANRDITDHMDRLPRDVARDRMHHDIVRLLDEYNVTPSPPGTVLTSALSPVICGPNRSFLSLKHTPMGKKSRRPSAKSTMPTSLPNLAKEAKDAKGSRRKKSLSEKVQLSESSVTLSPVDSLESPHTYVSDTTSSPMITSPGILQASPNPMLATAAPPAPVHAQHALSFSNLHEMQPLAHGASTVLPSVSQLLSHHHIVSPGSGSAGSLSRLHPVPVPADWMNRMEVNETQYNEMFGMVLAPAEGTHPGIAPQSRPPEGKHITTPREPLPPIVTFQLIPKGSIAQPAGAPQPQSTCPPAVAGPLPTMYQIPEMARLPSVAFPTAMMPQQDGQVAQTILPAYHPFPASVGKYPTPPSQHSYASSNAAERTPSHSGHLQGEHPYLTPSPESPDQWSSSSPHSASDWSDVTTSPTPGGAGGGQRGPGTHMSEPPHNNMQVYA
Reported endpoint: composite z-score

1) O=C1N(CCS(=O)(=O)c2ccccc2)c2ccccc2C[C@]12N=C(c1ccc(OCCCO)cc1)O[C@@H]2c1ccccc1    1.15
2) COc1ccc([Si](C)(C)[C@@H]2[C@@H](CC(=O)N3CCC[C@H]3CO)O[C@]3(C(=O)N(Cc4cccc(N5CCCCC5=O)c4)c4ccccc43)[C@H]2C)cc1    0.0236
3) CC(C)N1C(=O)C[C@@](C(=O)NCCN2CCOCC2)(c2ccc([N+](=O)[O-])cc2)[C@H]1c1ccc(CO)cc1    -0.575
4) COC(=O)[C@H](Cc1ccc(O)cc1)N[C@@H](/C=C/C1CC1)[C@H](O)Cc1ccccc1    0.023
